Target: acid ceramidase (Homo sapiens, UniProt Q13510)
Construct: Cell lysates overexpressing acid ceramidase were used as the enzyme source; expressed in transfected cells
Sequence (Q13510 22-395): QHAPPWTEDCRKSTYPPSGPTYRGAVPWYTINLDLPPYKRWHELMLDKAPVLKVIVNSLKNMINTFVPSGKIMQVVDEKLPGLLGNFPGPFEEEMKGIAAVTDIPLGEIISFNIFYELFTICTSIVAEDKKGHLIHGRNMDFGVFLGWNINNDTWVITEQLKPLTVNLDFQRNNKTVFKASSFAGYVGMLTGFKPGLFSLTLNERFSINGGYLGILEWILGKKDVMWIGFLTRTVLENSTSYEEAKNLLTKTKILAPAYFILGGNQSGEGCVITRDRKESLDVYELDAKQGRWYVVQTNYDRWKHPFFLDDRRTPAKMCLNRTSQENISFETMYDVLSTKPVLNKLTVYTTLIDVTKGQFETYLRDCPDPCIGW
Assay: Acid ceramidase inhibition, biochemical fluorescent assay with cell lysates overexpressing acid ceramidase, substrate Rbm14-12
Conditions: substrate Rbm14-12 6.3 μM, pH 4.5
Test readout: IC50

Reference set, count: 5
**Query** Tell me reported IC50 for O=C(NCCCc1ccccc1)n1cnc2c(N3CCC3)cccc21 , tested with acid ceramidase (Homo sapiens, UniProt Q13510).
**Result** < 200 nM

**Query** Please tell me: IC50 of CN1CCN(c2cccc3c2ncn3C(=O)NCCC2CCCC2(F)F)CC1 (centres unmarked) , system acid ceramidase (Homo sapiens, UniProt Q13510)?
**Result** 200 to 1000 nM

**Query** Identify the measured IC50 of CC(=O)N1CCN(c2cccc3c2ncn3C(=O)NCCC(C)C)CC1 for acid ceramidase (Homo sapiens, UniProt Q13510).
**Result** < 200 nM

**Query** Under acid ceramidase (Homo sapiens, UniProt Q13510): IC50 value of CC(C)C(=O)N1CCN(c2cccc3c2ncn3C(=O)NCCCC2(C(F)(F)F)CC2)CC1 ?
**Result** < 200 nM

**Query** Param readout = IC50; param system = acid ceramidase (Homo sapiens, UniProt Q13510); param query = CC(C)C#CCNC(=O)n1cnc2c(N3CCN(C)CC3)cccc21 ; response: value
**Result** < 200 nM

---
**Query** Which IC50 is reported with acid ceramidase (Homo sapiens, UniProt Q13510) for this entry: O=C(NCCC1CCC(F)(F)C1)n1cnc2c(N3CCN4CCCC4C3)cccc21 (centres unmarked) ?
**Result** 200 to 1000 nM

**Query** Lab request: please report IC50 under test system acid ceramidase (Homo sapiens, UniProt Q13510) for COc1nc2cc(F)c(N3CCN(C4CN(C)C4)CC3)cc2n1C(=O)NCC#CC(C)C [Example 320b]
**Result** 200 to 1000 nM

**Query** Record lookup: for acid ceramidase (Homo sapiens, UniProt Q13510), what IC50 belongs to CC(C)C#CCNC(=O)n1cnc2c(N3CC(N4CCN(C)CC4)C3)cccc21 ?
**Result** < 200 nM

**Query** For acid ceramidase (Homo sapiens, UniProt Q13510), provide IC50 of CC(C)C#CCNC(=O)n1cnc2c(N3CCN(CCF)CC3)cccc21 please.
**Result** < 200 nM

**Query** Provide value of IC50 for this record tested with acid ceramidase (Homo sapiens, UniProt Q13510): CC(C)C#CCNC(=O)n1cnc2c(N3CCC4(CC3)CCN4C)cccc21
**Result** < 200 nM

**Query** What IC50 appears in the records for this compound with acid ceramidase (Homo sapiens, UniProt Q13510)? COc1nc2cc(N3CCOCC3)ccc2n1C(=O)NCCCc1ccc(F)cc1F [Example 224b]
**Result** < 200 nM

**Query** Lab request: please report IC50 under test system acid ceramidase (Homo sapiens, UniProt Q13510) for COc1nc2ccc(N3CCOCC3)cc2n1C(=O)NCCCC1(C(F)(F)F)CC1 [Example 183a]
**Result** < 200 nM

**Query** Which measured IC50 belongs to COc1nc2ccc(N3CCOCC3)cc2n1C(=O)NCCCc1nccs1 , tested on acid ceramidase (Homo sapiens, UniProt Q13510)?
**Result** 200 to 1000 nM

**Query** Kindly state the measured IC50 obtained for COc1nc2cc(N3CCOCC3)ccc2n1C(=O)NCCCC1(C(F)(F)F)CC1 [Example 183b] with acid ceramidase (Homo sapiens, UniProt Q13510).
**Result** < 200 nM

**Query** Form entry - test system: acid ceramidase (Homo sapiens, UniProt Q13510); read-out: IC50; compound: COc1nc2cc(N3CCOCC3)ccc2n1C(=O)NCCCc1ccc(F)cc1 [Example 221b]
**Result** < 200 nM

**Query** Quick check: IC50 on acid ceramidase (Homo sapiens, UniProt Q13510), item COc1nc2cc(N3[C@@H]4CC[C@H]3COC4)ccc2n1C(=O)NCCCc1ccccc1 [Example 237a] ?
**Result** < 200 nM
